Recorded IC50 for the following compounds
- target_entity: Human recombinant PDE2A (hPDE2A) (Homo sapiens, UniProt O00408)
- Construct: His tag (inferred from metal chelate purification); made in house; host or cells: Sf9 insect cells (baculovirus)
- Sequence (O00408 whole entry): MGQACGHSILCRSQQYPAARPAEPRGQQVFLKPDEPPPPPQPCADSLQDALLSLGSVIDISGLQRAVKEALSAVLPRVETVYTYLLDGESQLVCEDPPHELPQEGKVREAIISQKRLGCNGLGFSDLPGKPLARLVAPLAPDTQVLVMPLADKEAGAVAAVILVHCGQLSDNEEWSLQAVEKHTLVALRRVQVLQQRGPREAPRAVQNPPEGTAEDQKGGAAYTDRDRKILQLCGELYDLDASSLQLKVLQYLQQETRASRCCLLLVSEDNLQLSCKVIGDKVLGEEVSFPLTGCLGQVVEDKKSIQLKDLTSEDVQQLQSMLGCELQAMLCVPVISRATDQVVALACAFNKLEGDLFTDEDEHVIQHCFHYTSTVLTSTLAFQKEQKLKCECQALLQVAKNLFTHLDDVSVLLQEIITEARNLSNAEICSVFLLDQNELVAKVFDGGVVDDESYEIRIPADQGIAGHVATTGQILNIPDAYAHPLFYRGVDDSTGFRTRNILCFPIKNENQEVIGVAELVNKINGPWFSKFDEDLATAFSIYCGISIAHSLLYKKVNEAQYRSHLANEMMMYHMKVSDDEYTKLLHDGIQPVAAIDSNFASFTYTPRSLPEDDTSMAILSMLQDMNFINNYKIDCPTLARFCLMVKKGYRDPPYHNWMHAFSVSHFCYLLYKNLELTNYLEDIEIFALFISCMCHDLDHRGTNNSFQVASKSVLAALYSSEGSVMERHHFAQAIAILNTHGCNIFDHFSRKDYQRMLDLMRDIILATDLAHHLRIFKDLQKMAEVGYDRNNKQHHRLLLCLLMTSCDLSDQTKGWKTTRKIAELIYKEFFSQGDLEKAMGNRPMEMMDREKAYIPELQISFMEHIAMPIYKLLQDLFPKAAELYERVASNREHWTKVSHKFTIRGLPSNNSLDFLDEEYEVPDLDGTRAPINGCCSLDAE
- protocol_text: In vitro assay PDE2A (SPA, 3H-cGMP hydrolysis)
- Assay type: biochemical
- condition_summary: read-out: hPDE2A pIC50 (converted)

line_notation: COc1cccc2c1OCC(C(=O)N1CC[C@@H](C)[C@H](c3cc(C(F)F)nc4ncnn34)C1)=C2
IC50 / nM: 0.398
--
line_notation: C[C@@H]1CCN(C(=O)c2cncn2C)C[C@H]1c1cc(C(F)F)nc2ncnn12
IC50 / nM: 89.1
--
line_notation: COc1c(C)cc(C(=O)N2CC[C@@H](C)[C@H](c3cc(C(F)F)nc4ncnn34)C2)cc1C
IC50 / nM: 0.457
--
line_notation: C[C@@H]1CCN(C(=O)c2nc3ccccc3o2)C[C@H]1c1cc(C(F)F)nc2ncnn12
IC50 / nM: 2.51
--
line_notation: COc1cc(C(=O)N2CC[C@@H](C)[C@H](c3cc(C(F)F)nc4ncnn34)C2)c(F)cn1
IC50 / nM: 2.75
--
line_notation: Cc1cc([C@@H]2CN(C(=O)c3ccn(C)c3)CC[C@H]2C)n2ncnc2n1
IC50 / nM: 6.03
--
line_notation: COc1cccc2c1OCC(C(=O)N1[C@H]3CC[C@H](c4cc(C(F)F)nc5ncnn45)[C@@H]1CC3)=C2
IC50 / nM: 0.457
--
line_notation: Cc1nc2ccc(C(=O)N3[C@H]4CC[C@H](c5cc(C(F)F)nc6ncnn56)[C@@H]3CC4)cc2s1
IC50 / nM: 6.17
--
line_notation: C[C@@H]1CCN(C(=O)c2ccc(C3CC3)c(C3CC3)c2)C[C@H]1c1cc(C(F)F)nc2ncnn12
IC50 / nM: 0.871
--
line_notation: Cc1cc(C(=O)N2CC[C@@H](C)[C@H](c3cc(C(F)F)nc4ncnn34)C2)c(C(F)(F)F)cn1
IC50 / nM: 13.8
--
line_notation: Cc1cc(C(=O)N2[C@H]3CC[C@H](c4cc(C(F)F)nc5ncnn45)[C@@H]2CC3)cc(C)c1F
IC50 / nM: 5.25
--
line_notation: C[C@@H]1CCN(C(=O)c2ccc3scnc3c2)C[C@H]1c1cc(C(F)F)nc2ncnn12
IC50 / nM: 2.19
--
line_notation: C[C@@H]1CCN(C(=O)c2cc3c(nc2Cl)CCCC3)C[C@H]1c1cc(C(F)F)nc2ncnn12
IC50 / nM: 4.57
--
line_notation: C[C@@H]1CCN(C(=O)c2cccc3ocnc23)C[C@H]1c1cc(C(F)F)nc2ncnn12
IC50 / nM: 26.3
--
line_notation: Cc1cc([C@@H]2CN(C(=O)c3cnc4ccc(C(F)(F)F)cn34)CC[C@H]2C)n2ncnc2n1
IC50 / nM: 12
--
line_notation: Cc1nc(C(F)(F)F)ccc1C(=O)N1CC[C@@H](C)[C@H](c2cc(C(F)F)nc3ncnn23)C1
IC50 / nM: 129
--
line_notation: COc1ncc(C)cc1C(=O)N1CC[C@@H](C)[C@H](c2cc(C(F)F)nc3ncnn23)C1
IC50 / nM: 2.19
--
line_notation: Cn1ncc2cc(C(=O)N3[C@H]4CC[C@H](c5cc(C(F)F)nc6ncnn56)[C@@H]3CC4)ccc21
IC50 / nM: 5.5
--
line_notation: C[C@@H]1CCN(C(=O)c2cc(Cl)ncc2F)C[C@H]1c1cc(C(F)F)nc2ncnn12
IC50 / nM: 4.17
--
line_notation: Cc1cc([C@@H]2CN(C(=O)c3cc(C4CC4)ncc3C3CC3)CC[C@H]2C)n2ncnc2n1
IC50 / nM: 2.09
--
line_notation: C[C@H]1CCN(C(=O)c2ccc3ncsc3c2)C[C@]1(F)c1cc(C(F)F)nc2ncnn12
IC50 / nM: 1950
--
line_notation: COc1cccc2cc(C(=O)N3CC[C@@H](C)[C@H](c4cc(C(F)F)nc5ncnn45)C3)oc12
IC50 / nM: 0.871
--
line_notation: O=C(c1ccc(F)c(Cl)c1)N1[C@H]2CC[C@H](c3cc(C(F)F)nc4ncnn34)[C@@H]1CC2
IC50 / nM: 17.8
--
line_notation: Cc1cc(C(=O)N2CC[C@@H](C)[C@H](c3cc(C(F)F)nc4ncnn34)C2)no1
IC50 / nM: 60.3
--
line_notation: O=C(c1ccc2ncccc2c1)N1[C@H]2CC[C@H](c3cc(C(F)F)nc4ncnn34)[C@@H]1CC2
IC50 / nM: 1.1
--
line_notation: C[C@@H]1CCN(C(=O)c2ccc(F)nc2)C[C@H]1c1cc(C(F)F)nc2ncnn12
IC50 / nM: 107
--
line_notation: COc1c(C)cc(C(=O)N2CC[C@@H](C)[C@@](F)(c3cc(C(F)F)nc4ncnn34)C2)cc1C
IC50 / nM: 2950
--
line_notation: O=C(c1cccc2cccnc12)N1[C@H]2CC[C@H](c3cc(C(F)F)nc4ncnn34)[C@@H]1CC2
IC50 / nM: 257
--
line_notation: O=C(c1ccc2cnccc2c1)N1[C@H]2CC[C@H](c3cc(C(F)F)nc4ncnn34)[C@@H]1CC2
IC50 / nM: 5.75
--
line_notation: COc1c(F)cc(C(=O)N2[C@H]3CC[C@H](c4cc(C(F)F)nc5ncnn45)[C@@H]2CC3)cc1F
IC50 / nM: 12

----------
- target_entity: Human recombinant PDE3A (hPDE3A) (Homo sapiens, UniProt Q14432)
- Construct: purchased Scottish Biomedical; host or cells: Sf9 insect cells
- Sequence (Q14432 whole entry): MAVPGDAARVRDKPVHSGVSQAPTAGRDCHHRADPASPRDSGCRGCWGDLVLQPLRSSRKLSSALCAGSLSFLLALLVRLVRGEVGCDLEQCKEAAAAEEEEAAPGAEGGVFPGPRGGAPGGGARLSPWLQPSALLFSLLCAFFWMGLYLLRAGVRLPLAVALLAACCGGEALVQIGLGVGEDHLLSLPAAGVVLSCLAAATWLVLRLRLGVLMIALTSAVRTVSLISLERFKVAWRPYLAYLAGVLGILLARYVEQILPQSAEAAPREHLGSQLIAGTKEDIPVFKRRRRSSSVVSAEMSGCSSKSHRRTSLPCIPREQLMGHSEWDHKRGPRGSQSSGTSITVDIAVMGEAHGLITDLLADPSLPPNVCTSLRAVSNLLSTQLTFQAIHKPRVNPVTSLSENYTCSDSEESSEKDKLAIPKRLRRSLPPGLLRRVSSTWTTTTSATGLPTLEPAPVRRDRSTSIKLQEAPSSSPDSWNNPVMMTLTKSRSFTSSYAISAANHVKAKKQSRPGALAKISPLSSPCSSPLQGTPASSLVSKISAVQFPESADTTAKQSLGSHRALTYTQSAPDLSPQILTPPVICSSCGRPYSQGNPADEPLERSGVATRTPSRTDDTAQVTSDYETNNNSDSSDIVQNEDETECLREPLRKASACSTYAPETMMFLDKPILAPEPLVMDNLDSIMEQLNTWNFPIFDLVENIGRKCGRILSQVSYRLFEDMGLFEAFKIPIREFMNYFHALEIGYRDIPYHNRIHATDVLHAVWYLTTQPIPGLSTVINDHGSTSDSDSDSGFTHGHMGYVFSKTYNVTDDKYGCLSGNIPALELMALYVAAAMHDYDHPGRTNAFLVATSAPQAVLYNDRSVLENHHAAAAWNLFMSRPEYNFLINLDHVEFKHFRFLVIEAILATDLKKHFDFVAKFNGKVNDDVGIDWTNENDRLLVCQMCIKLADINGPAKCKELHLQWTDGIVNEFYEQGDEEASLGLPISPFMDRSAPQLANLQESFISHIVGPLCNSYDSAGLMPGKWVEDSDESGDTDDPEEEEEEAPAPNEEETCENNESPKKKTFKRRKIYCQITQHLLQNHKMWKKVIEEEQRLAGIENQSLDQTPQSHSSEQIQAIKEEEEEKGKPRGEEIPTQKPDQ
- protocol_text: In vitro assay PDE3A (SPA, 3H-cAMP hydrolysis);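 further: the method names PDE3A and the table heading PDE3B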
- Assay type: biochemical
- condition_summary: hPDE3B pIC50; read-out: pIC50 (converted)
Recorded IC50 for the following molecules

molecule: Cc1coc2ccc(C(=O)N3CC[C@@H](C)[C@H](c4cc(C(F)F)nc5ncnn45)C3)cc12 [Compound 92]
rel: =
IC50 / µM: 1.32
//
molecule: Cc1cc(C(=O)N2[C@H]3CC[C@@H]2[C@H](c2cc(C(F)F)nc4ncnn24)CC3)c(F)cn1 [Compound 62]
rel: >
IC50 / µM: 10
//
molecule: O=C(c1ccc(Cl)c(Cl)c1)N1[C@H]2CC[C@H](c3cc(C(F)F)nc4ncnn34)[C@@H]1CC2 [Compound 356]
rel: =
IC50 / µM: 5.89
//
molecule: CN1CCOc2cc(C(=O)N3[C@H]4CC[C@H](c5cc(C(F)F)nc6ncnn56)[C@@H]3CC4)ccc21 [Compound 378]
rel: =
IC50 / µM: 0.759
//
molecule: C[C@@H]1CCN(C(=O)c2cccc3ncoc23)C[C@H]1c1cc(C(F)F)nc2ncnn12 [Compound 176]
rel: =
IC50 / µM: 8.71
//
molecule: C[C@@H]1CCN(C(=O)c2cnc(N(C)C)nc2)C[C@H]1c1cc(C(F)F)nc2ncnn12 [Compound 174]
rel: =
IC50 / µM: 1.32
//
molecule: C[C@@H]1CCN(C(=O)c2ccc(C(F)(F)F)nc2)C[C@H]1c1cc(C(F)F)nc2ncnn12 [Compound 167]
rel: =
IC50 / µM: 5.37

----------
- target_entity: Human recombinant PDE10A (hPDE10A) (Homo sapiens, UniProt Q9Y233)
- Construct: His tag (inferred from metal chelate purification); made in house; host or cells: Sf9 insect cells (baculovirus)
- Sequence (Q9Y233 267-1055): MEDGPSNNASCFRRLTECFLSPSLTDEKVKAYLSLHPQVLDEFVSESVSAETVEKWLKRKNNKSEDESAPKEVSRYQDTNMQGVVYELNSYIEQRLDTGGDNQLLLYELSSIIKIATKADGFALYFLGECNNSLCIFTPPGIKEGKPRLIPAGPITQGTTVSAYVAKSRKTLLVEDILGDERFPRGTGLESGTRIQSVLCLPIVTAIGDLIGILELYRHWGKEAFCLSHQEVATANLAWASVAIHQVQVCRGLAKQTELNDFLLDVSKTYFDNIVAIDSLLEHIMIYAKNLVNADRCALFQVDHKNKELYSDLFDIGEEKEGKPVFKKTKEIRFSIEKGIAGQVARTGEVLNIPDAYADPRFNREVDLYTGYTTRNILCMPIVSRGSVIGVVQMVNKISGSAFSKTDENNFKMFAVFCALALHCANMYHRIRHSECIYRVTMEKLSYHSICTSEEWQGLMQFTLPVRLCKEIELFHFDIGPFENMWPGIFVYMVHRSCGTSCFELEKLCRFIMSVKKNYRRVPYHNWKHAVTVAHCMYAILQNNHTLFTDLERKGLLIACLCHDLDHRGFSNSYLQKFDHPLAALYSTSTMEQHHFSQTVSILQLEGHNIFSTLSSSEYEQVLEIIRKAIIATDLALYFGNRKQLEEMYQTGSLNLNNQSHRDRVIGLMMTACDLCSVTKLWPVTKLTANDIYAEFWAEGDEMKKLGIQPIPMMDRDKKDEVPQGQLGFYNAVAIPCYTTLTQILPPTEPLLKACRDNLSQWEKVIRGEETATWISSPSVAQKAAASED
- protocol_text: In vitro assay PDE10A, human clone (SPA, 3H-cAMP hydrolysis)
- Assay type: biochemical
- condition_summary: human clone (h), default; read-out: hPDE10A2 pIC50 (converted)
Quick rule for you: IC50 under 600 nM gets Satisfied, anything else gets Not satisfied.

line_notation: Cc1cc([C@@H]2CN(C(=O)c3cc(C)c(C)cn3)CC[C@H]2C)n2ncnc2n1
assigned_label: Satisfied
--
line_notation: C[C@@H]1CCN(C(=O)c2ccnc(Cl)c2F)C[C@H]1c1cc(C(F)F)nc2ncnn12
assigned_label: Not satisfied
--
line_notation: COc1ccc(C(C)(C)C)cc1C(=O)N1CC[C@@H](C)[C@H](c2cc(C(F)F)nc3ncnn23)C1
assigned_label: Not satisfied
--
line_notation: Cc1cc(C(=O)N2CC[C@@H](C)[C@H](c3cc(C(F)F)nc4ncnn34)C2)c(F)cn1
assigned_label: Not satisfied
--
line_notation: C[C@@H]1CCN(C(=O)c2ccc3occc3c2)C[C@H]1c1cc(C(F)F)nc2ncnn12
assigned_label: Satisfied
--
line_notation: C[C@@H]1CCN(C(=O)c2nc3ccccc3o2)C[C@H]1c1cc(C(F)F)nc2ncnn12
assigned_label: Not satisfied
--
line_notation: Cc1cc(C(=O)N2CC[C@@H](C)[C@H](c3cc(C(F)F)nc4ncnn34)C2)cnc1C
assigned_label: Satisfied
--
line_notation: C[C@@H]1CCN(C(=O)c2ccc3nccn3c2)C[C@H]1c1cc(C(F)F)nc2ncnn12
assigned_label: Satisfied
--
line_notation: Cc1nc(C(F)(F)F)ccc1C(=O)N1CC[C@@H](C)[C@H](c2cc(C(F)F)nc3ncnn23)C1
assigned_label: Not satisfied
